The following compounds were reported with log10 Ki values on Endothelin receptor type B (Rattus norvegicus, UniProt P21451) in different studies.
Sequence (P21451 whole entry): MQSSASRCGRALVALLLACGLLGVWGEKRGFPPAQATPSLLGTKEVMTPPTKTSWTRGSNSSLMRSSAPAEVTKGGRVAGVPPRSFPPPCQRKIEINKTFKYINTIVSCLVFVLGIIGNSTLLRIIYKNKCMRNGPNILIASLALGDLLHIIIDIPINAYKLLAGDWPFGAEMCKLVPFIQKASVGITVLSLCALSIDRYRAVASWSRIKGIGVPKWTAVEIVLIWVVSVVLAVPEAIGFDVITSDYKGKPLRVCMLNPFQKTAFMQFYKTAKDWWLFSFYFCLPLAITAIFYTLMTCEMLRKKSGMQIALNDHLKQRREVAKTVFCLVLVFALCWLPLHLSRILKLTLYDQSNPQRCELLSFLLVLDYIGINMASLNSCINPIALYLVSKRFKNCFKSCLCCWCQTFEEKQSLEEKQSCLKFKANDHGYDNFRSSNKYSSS
Short version: log10 scale, Ki, µM.

Some compounds with known log10 Ki results, for comparison:
>  <smiles-representation>
Cc1noc(NS(=O)(=O)c2ccccc2-c2ccc(OCc3ccccc3)cc2)c1C

>  <log10 Ki>
0.92

$$$$
>  <smiles-representation>
Cc1noc(NS(=O)(=O)c2ccccc2-c2ccc(-c3ncco3)cc2)c1C

>  <log10 Ki>
0.28

$$$$
>  <smiles-representation>
COc1ccc(S(=O)(=O)Nc2onc(C)c2C)c(-c2ccc(CC(C)C)cc2)c1

>  <log10 Ki>
0.79

$$$$
>  <smiles-representation>
CCCc1ccc(-c2ccccc2S(=O)(=O)Nc2onc(C)c2C)cc1

>  <log10 Ki>
1.18

$$$$
>  <smiles-representation>
CCCN1c2ccccc2C(=O)N(CC(=O)O)c2cc(NC(=O)c3c[nH]c4ccccc34)ccc21

>  <log10 Ki>
1.04

$$$$
>  <smiles-representation>
Cc1noc(NS(=O)(=O)c2ccccc2-c2ccc(CC(C)C)cc2NCC(=O)O)c1C

>  <log10 Ki>
1.08

$$$$
>  <smiles-representation>
Cc1cccc(-c2ccc(CC(C)C)cc2)c1S(=O)(=O)Nc1onc(C)c1C

>  <log10 Ki>
1.28

$$$$

Would you kindly look at the next entry?
Can you look up log10 Ki on Endothelin receptor type B (Rattus norvegicus, UniProt P21451) for "Cc1noc(NS(=O)(=O)c2cccc(O)c2-c2ccc(CC(C)C)cc2)c1C" ?
-0.03
